Item-by-item account of pIC50
Experiment: IC50 with and without incubation (enzyme not given)
Type: biochemical
Settings: with incubation; read-out: IC50 Inc.
Expect pIC50 as a plain number equal to -log10 of the molar concentration.

>  <COMPOUND>
CCCCCC(NC(=O)[C@@H]1CCCN1C(=O)[C@H](N)C(c1ccccc1)c1ccccc1)P(=O)(Oc1ccccc1)Oc1ccccc1 (some centres unmarked)

>  <VALUE MEASURED>
9.03

$$$$
>  <COMPOUND>
CCCCCC(NC(=O)[C@@H]1CCCN1C(=O)[C@H](N)C(c1ccccc1)c1ccccc1)P(=O)(O)O (some centres unmarked)

>  <VALUE MEASURED>
6.12

$$$$
>  <COMPOUND>
CC(C)(C)OC(=O)NC(C(=O)N1CCCC1C(=O)NC(c1ccccc1)P(=O)(O)O)C(c1ccccc1)c1ccccc1 (centres unmarked)

>  <VALUE MEASURED>
7.08

$$$$
>  <COMPOUND>
CC1(C)C2CC3OB(C(CCCSC(=N)N)NC(=O)C4CCCN4C(=O)C(Cc4ccccc4)NC(=O)OCc4ccccc4)OC3(C)C1C2 (centres unmarked)

>  <VALUE MEASURED>
7.17

$$$$

Ask | Give its pIC50 value. Item: CCCCCC(NC(=O)[C@@H]1CCCN1C(=O)[C@H](N)Cc1ccccc1)P(=O)(O)O (some centres unmarked)
Reply | 5.36

====

Target: Plasmin (Homo sapiens, UniProt P00747)
Sequence (P00747 97-580 limits assumed, species assumed): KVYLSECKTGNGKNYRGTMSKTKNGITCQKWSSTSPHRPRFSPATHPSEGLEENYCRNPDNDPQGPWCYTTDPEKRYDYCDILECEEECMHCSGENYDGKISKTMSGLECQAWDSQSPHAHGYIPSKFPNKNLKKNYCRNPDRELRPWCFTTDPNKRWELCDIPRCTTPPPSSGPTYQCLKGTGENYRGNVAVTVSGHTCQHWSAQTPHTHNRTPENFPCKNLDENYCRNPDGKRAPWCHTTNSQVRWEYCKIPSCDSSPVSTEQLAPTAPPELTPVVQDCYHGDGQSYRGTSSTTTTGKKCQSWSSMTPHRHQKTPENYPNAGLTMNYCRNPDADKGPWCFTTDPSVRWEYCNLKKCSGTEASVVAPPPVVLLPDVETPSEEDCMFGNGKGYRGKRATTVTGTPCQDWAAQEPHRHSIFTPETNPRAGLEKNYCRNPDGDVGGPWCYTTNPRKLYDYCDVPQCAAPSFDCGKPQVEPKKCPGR
Sequence (P00747 581-810 limits assumed, species assumed): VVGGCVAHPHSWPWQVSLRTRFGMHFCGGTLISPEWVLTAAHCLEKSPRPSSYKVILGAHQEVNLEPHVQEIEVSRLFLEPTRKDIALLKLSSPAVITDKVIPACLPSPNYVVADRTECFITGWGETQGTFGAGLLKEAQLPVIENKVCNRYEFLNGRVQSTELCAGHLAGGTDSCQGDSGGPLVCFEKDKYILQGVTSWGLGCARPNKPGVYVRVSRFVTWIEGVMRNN
Experiment: IC50 against plasmin
Assay type: biochemical
Conditions: single value given, incubation not given; read-out: Plasmin no inc/inc
Item-by-item account of IC50
Reply with just the number (in µM).

Worked cases, answers included:
>  <COMPOUND>
CC1(C)OB(C(Cc2ccccc2)NC(=O)C2CCCN2C(=O)C(Cc2ccccc2)NC(=O)OCc2ccccc2)OC1(C)C [Compound 41, Z-D-Phe-Pro-BoroPhe-OPinac]

>  <VALUE MEASURED>
37.3

$$$$
>  <COMPOUND>
CCC(C)CC(NC(=O)[C@@H]1CCCN1C(=O)[C@@H](Cc1ccccc1)NC(=O)OCc1ccccc1)B1OC2CC3CC(C3(C)C)C2(C)O1 (stereo partly drawn) [Compound 22, Z-D-Phe-Pro-BoroMbg-OPin]

>  <VALUE MEASURED>
11.5

$$$$
>  <COMPOUND>
COCCCC(NC(=O)C1CCCN1C(=O)C(Cc1ccccc1)NC(=O)OCc1ccccc1)B1OC2CC3CC(C3(C)C)C2(C)O1 [Compound 50, Z-D-Phe-Pro-BoroMpg-OPin]

>  <VALUE MEASURED>
3.23

$$$$

Next compound, IC50 to be filled in.
Ask | Any idea what IC50 came out for CC1(C)C2CC3OB(C(CCCSC(=N)N)NC(=O)C4CCCN4C(=O)C(Cc4ccccc4)NC(=O)OCc4ccccc4)OC3(C)C1C2 [Compound 25, Z-D-Phe-Pro-BoroIrg-OPin] on Plasmin (Homo sapiens, UniProt P00747)?
Reply | 0.0084

====

Experiment: IC50 with and without incubation (enzyme not given)
Format: biochemical
Conditions: no incubation; read-out: IC50 No Incubations
pIC50: −log10 of the molar value.
Lab note: compare pIC50 against 5. Equal or greater, write 1 (yes). Smaller, write 0 (no).

Solved entries (count: 8):
>  <MOLECULE>
CC(C)(C)OC(=O)NC(C(=O)N1CCCC1C(=O)NC(c1ccccc1)P(=O)(O)O)C(c1ccccc1)c1ccccc1 [Compound 15, Boc-D,L-Dpa-Pro-Pgl^P(OH)2]

>  <GROUP>
1 (yes)

$$$$
>  <MOLECULE>
N=C(N)NCCCC(NC(=O)C1CCCN1C(=O)C(N)C(c1ccccc1)c1ccccc1)C(=O)CCC(=O)N1CCCCC1.O=C(O)C(F)(F)F.O=C(O)C(F)(F)F [Compound 6, D-Dpa-Pro-Arg--k--Gly-Pip]

>  <GROUP>
1 (yes)

$$$$
>  <MOLECULE>
NC(C(=O)N1CCCC1C(=O)NC(c1ccccc1)P(=O)(O)O)C(c1ccccc1)c1ccccc1 [Compound 16, D,L-Dpa-Pro-Pgl^P(OH)2]

>  <GROUP>
1 (yes)

$$$$
>  <MOLECULE>
CC1(C)C2CC3OB(C(CCCSC(=N)N)NC(=O)C4CCCN4C(=O)C(Cc4ccccc4)NC(=O)OCc4ccccc4)OC3(C)C1C2 [Compound 25, Z-D-Phe-Pro-BoroIrg-OPin]

>  <GROUP>
1 (yes)

$$$$
>  <MOLECULE>
COCCCC(NC(=O)C1CCCN1C(=O)C(Cc1ccccc1)NC(=O)OCc1ccccc1)B1OC2CC3CC(C3(C)C)C2(C)O1 [Compound 50, Z-D-Phe-Pro-BoroMpg-OPin]

>  <GROUP>
1 (yes)

$$$$
>  <MOLECULE>
CC1(C)OB(C(Cc2ccccc2)NC(=O)C2CCCN2C(=O)C(Cc2ccccc2)NC(=O)OCc2ccccc2)OC1(C)C [Compound 41, Z-D-Phe-Pro-BoroPhe-OPinac]

>  <GROUP>
1 (yes)

$$$$
>  <MOLECULE>
COCCCC(NC(=O)[C@@H]1CCCN1C(=O)[C@H](N)Cc1ccccc1)P(=O)(Oc1ccccc1)Oc1ccccc1 (stereo partly drawn) [Compound 40, H-D-Phe-Pro-Mpg^P(OPh)2]

>  <GROUP>
0 (no)

$$$$
>  <MOLECULE>
CCC(C)CC(NC(=O)[C@@H]1CCCN1C(=O)[C@@H](Cc1ccccc1)NC(=O)OCc1ccccc1)B1OC2CC3CC(C3(C)C)C2(C)O1 (stereo partly drawn) [Compound 22, Z-D-Phe-Pro-BoroMbg-OPin]

>  <GROUP>
1 (yes)

$$$$

Alright, here's another molecule for you.
Ask | Could you tell me if the measured pIC50 of CCCCCC(NC(=O)[C@@H]1CCCN1C(=O)[C@H](N)Cc1ccccc1)P(=O)(O)O (stereo partly drawn) [Compound 21, D-Phe-Pro-Pgl^P(OH)2] reaches 5 or more?
Reply | 0 (no)
